- Tested on: HepG2 cells
- test.summary: HepG2 cytotoxicity assay
- measurement.parameters: read-out: HepG2 cytotoxicity assay IC50; dose response confirmation
- Description: Briefly, HepG2 cells were seeded onto compound-treated 384 well plates at a density of 2,500 cells per well in Minimal Essential Medium (MEM) plus 10% fetal bovine serum and 1% non-essential amino acids solution (NEAA). […] Cell viability was then measured in a fluorescent plate reader and percent inhibition calculated with respect to positive and negative controls.
I'd appreciate it if you could supply pIC50 values for the items below.
Schema: pIC50 number; meaning minus log10 of the concentration expressed in molar units.

What does the record list as pIC50 for COc1ccc2nccc([C@@H](O)CN3CCC(NC(=O)c4cc5c(F)cc(F)cc5[nH]4)CC3)c2c1.CS(=O)(=O)O ?
4.95

Given the molecule COc1cc(Nc2ccc3cc(S(=O)(=O)N4CCCCC4C)ccc3n2)cc(OC)c1OC (stereo not shown) , what is its reported pIC50?
4.61

// query pIC50 value for entry CCCc1cc2c3c(N)nc(N)nc3ccc2n1C(CC)CC
8.77

Look up pIC50: COc1ccc(C=NNc2nc(O)cc(-c3ccccc3)n2)cc1OC
4.24

====

- Tested on: HepG2 cells
- test.summary: HepG2 cytotoxicity assay
- measurement.parameters: read-out: HepG2 cytotoxicity assay IC50; dose response confirmation
measured.metric: pIC50
Please keep in mind that pIC50 is minus log10 of the molar concentration; only the number is needed.

Endpoint output: pIC50 of COc1nc2c(CCN3CC[C@H](NCc4ccc5c(c4)NC(=O)CO5)[C@H](O)C3)c(Cl)cnc2cc1F.Cl . Value?
4.92

Consider the compound Cc1cc(Nc2ncc(C#N)c(Nc3ccccc3C(N)=O)n2)ccc1N1CCN(C)CC1.Cl and give its measured pIC50.
5.40

Name the reported pIC50 value associated with the compound COc1ccc(NS(=O)(=O)c2cc(NC(=O)Cn3ccccc3=O)ccc2N2CCCCC2)cc1
4.00

Query (compound): Cc1[nH]c(C)c(-c2ccc(-c3ccc(OC(F)(F)F)cc3)cc2)c(=O)c1Cl ; field requested: pIC50
4.19

Need pIC50, item Br.CC[C@H]1CN2CCc3cc(OC)c(OC)cc3[C@@H]2C[C@@H]1C[C@H]1NCCc2c1cc(OC)c(O)c2I
5.27

Could you share which pIC50 value was measured for CCc1c(C)nc(-n2nc(C)cc2NC(=O)c2ccc(OC)cc2OC)[nH]c1=O ?
5.00

Reported pIC50, compound Cc1cc(=O)c(-c2ccc(Oc3cccc(C(F)(F)F)c3)cc2)c(C)[nH]1 [TCMDC-133308] : ____
4.84

Given the entry CC1CN(Cc2cccc(F)c2)CCN1c1ccc(NC(=O)c2cccs2)cc1.O=C(O)C(F)(F)F (stereo not shown) , report its measured pIC50.
3.92

Would you mind telling me what pIC50 value was observed for Cc1occc1C(=O)Nc1nc(-c2ccccn2)nc2ccsc12 ?
6.06

pIC50 lookup needed for CC(C)Nc1nc(NC2CCCCC2)nc(N2CCCCCCC2)n1 , thanks.
4.48

Look up pIC50 for this compound: C=CCc1cc(OC)ccc1OCCCOc1c(C)nc(N)nc1N.Cl
6.59

Need pIC50 of CC(=O)c1ccc(NC(=O)Nc2ccc(N(C)c3ccnc(Nc4cccc(CS(C)(=O)=O)c4)n3)cc2)cc1 , thanks.
5.68

Endpoint output: pIC50 of Cc1cccc2nc(-c3ccc(-c4ccc(CN5CCOCC5)cc4)cc3)[nH]c12.O=C(O)C(F)(F)F . Value?
4.56

Consider the compound COc1ccc2ncc(C)c(CCN3CCC(NCc4ccc5c(n4)NC(=O)CS5)CC3)c2c1.Cl and give its measured pIC50.
4.46

Given the entry Cc1noc(C)c1-c1cccc(CNCc2ccc(-c3ccc(-c4nc5cccc(C)c5[nH]4)cc3)cc2)c1.O=C(O)C(F)(F)F , report its measured pIC50.
5.10

What pIC50 value was documented for this compound, COc1ccc2nccc([C@@H](O)CN3CCC(NCc4cc5ccccc5nc4O)CC3)c2c1.Cl ?
4.31
